target: T1, Axl (Homo sapiens, UniProt P30530)
T1 sequence (P30530 26-451 limits assumed): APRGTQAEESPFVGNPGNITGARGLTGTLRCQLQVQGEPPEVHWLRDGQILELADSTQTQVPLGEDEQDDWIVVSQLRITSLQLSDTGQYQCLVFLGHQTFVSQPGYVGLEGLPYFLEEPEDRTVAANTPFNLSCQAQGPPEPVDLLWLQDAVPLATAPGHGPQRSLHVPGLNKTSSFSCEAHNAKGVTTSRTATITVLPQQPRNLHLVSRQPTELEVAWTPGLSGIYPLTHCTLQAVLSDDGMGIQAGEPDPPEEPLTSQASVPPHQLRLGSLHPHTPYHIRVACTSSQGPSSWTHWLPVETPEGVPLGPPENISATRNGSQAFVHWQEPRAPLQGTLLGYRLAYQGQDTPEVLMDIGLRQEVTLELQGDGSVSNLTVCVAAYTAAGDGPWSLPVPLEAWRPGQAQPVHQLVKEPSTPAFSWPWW
assay: Affinity ELISA of CPE mutant antibodies for binding to Axl at pH 6.0 over pH 7.4
test settings: heavy chain variable region mutants; 1:3 dilution
Answer each item with its documented Affinity ELISA CPE mutant ratio (1:3, pH 6.0/7.4).
Numbers only.

Below are worked cases with known answers.
molecule: HC-Y104E (antibody, V domains shown) VH: EVQLVQSGAEVKKPGATVKISCKVSGYSFTGHTMNWIRQPPGKGLEWIGLIKPSNGGTSYNQKFKGRVTISADKSISTAYLQWSSLKASDTAMYYCAHGHYESEFAMDYWGQGTLVTVSS VL: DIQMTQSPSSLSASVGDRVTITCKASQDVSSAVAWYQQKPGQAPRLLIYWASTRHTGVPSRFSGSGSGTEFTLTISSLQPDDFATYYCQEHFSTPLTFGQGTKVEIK
value measured: 1.321

molecule: HC-N035I (antibody, V domains shown) VH: EVQLVQSGAEVKKPGATVKISCKVSGYSFTGHTMIWIRQPPGKGLEWIGLIKPSNGGTSYNQKFKGRVTISADKSISTAYLQWSSLKASDTAMYYCAHGHYESYFAMDYWGQGTLVTVSS VL: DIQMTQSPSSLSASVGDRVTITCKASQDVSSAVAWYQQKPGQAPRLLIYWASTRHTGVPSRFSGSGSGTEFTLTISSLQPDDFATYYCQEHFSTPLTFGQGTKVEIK
value measured: 2.814

molecule: HC-S059T (antibody, V domains shown) VH: EVQLVQSGAEVKKPGATVKISCKVSGYSFTGHTMNWIRQPPGKGLEWIGLIKPSNGGTTYNQKFKGRVTISADKSISTAYLQWSSLKASDTAMYYCAHGHYESYFAMDYWGQGTLVTVSS VL: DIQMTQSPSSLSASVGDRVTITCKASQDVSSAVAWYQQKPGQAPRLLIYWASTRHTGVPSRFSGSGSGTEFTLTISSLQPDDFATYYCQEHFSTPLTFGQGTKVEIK
value measured: 1.021

Provide the reported Affinity ELISA CPE mutant ratio (1:3, pH 6.0/7.4) of each entry below, same order.
1. HC-A106L (antibody, V domains shown) VH: EVQLVQSGAEVKKPGATVKISCKVSGYSFTGHTMNWIRQPPGKGLEWIGLIKPSNGGTSYNQKFKGRVTISADKSISTAYLQWSSLKASDTAMYYCAHGHYESYFLMDYWGQGTLVTVSS VL: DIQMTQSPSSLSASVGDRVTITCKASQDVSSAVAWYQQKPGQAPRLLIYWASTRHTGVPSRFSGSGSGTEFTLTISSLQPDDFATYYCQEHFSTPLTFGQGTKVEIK
2. HC-G111H (antibody, V domains shown) VH: EVQLVQSGAEVKKPGATVKISCKVSGYSFTGHTMNWIRQPPGKGLEWIGLIKPSNGGTSYNQKFKGRVTISADKSISTAYLQWSSLKASDTAMYYCAHGHYESYFAMDYWHQGTLVTVSS VL: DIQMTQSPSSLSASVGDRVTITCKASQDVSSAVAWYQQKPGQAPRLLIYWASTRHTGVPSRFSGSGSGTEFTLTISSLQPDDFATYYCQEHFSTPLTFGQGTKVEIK

21.538
1.058
